Known surviving fraction of a selection of compounds
Test system: E34 (patient-derived glioblastoma stem cells of proneural subtype);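 also: nuclei counted by high-content imaging of Hoechst-stained cells in laminin-coated 384-well plates, relative to 0.1% DMSO vehicle wells, with staurosporine as cell-death control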
Assay protocol: surviving fraction (nuclei count normalised to DMSO); higher = more cells surviving (less toxic)
Setup conditions: 37 nM; exposure time: 72 h
Counter-ions that a name gives are not always drawn.
Readout label: surviving fraction

1) O=C(Nc1ccc([N+](=O)[O-])cc1Cl)c1cc(Cl)ccc1O [Niclosamide]    0.562
2) CC(NCCC(c1ccccc1)c1ccccc1)c1ccccc1 (stereo unspecified) [Fendiline hydrochloride]    0.969
3) NCCCP(=O)(O)O    0.998
4) CCCCCCCCCCCCCCCC[N+](C)(C)CCN(Cc1ccc(OC)cc1)c1ncccn1 [Thonzonium bromide]    1.04
5) N=c1ccn2c(n1)O[C@H]1[C@H](O)[C@@H](CO)O[C@H]12 [Ancitabine hydrochloride]    0.963
6) NC(=O)c1cccc2cn(-c3ccc([C@@H]4CCCNC4)cc3)nc12    0.902
7) C[C@H](NC(=O)[C@@H](O)c1cc(F)cc(F)c1)C(=O)N[C@@H]1C(=O)N(C)c2ccccc2-c2ccccc21    0.801
8) COc1cc([C@@H]2c3cc4c(cc3[C@@H](O[C@@H]3O[C@@H]5CO[C@@H](c6cccs6)O[C@H]5[C@H](O)[C@H]3O)[C@H]3COC(=O)[C@H]23)OCO4)cc(OC)c1O [Teniposide]    0.577
9) COc1cc2c[n+](C)c3c4cc5c(cc4ccc3c2cc1OC)OCO5 [Nitidine chloride]    0.769
10) CC(=O)[C@]1(O)Cc2c(O)c3c(c(O)c2[C@@H](O[C@H]2C[C@H](N)[C@H](O)[C@H](C)O2)C1)C(=O)c1ccccc1C3=O    0.54
11) COc1ccc2c(c1)CC[C@@H]1[C@@H]2CC[C@]2(C)[C@@H](NCCCCCCN3C(=O)CCC3=O)CC[C@@H]12    1.13
12) OCCN1CCN(CCCN2c3ccccc3Sc3ccc(Cl)cc32)CC1    1.1
13) O=C(CCBr)N1CCN(C(=O)CCBr)CC1    1.08
14) COc1ccc(/C=C\c2cc(OC)c(OC)c(OC)c2)cc1OP(=O)(O)O [Fosbretabulin Disodium]    1.06
15) CNCCc1ccccn1 [Betahistine mesylate]    0.928
16) C[C@]12CC[C@H](O)C[C@H]1CC[C@@H]1[C@@H]2C[C@@H](O)[C@]2(C)[C@@H](C3=CC(=O)OC3)CC[C@]12O    0.861
